Data origin, for the record: patent US20040018558A1

Biological target: T1, rhodopsin (activation state not stated) (bovine, UniProt P02699 1-348)
T1 construct: whole, on cells; same protein as m1; also called EDTA-washed rhodopsin
T1 sequence (P02699 whole entry): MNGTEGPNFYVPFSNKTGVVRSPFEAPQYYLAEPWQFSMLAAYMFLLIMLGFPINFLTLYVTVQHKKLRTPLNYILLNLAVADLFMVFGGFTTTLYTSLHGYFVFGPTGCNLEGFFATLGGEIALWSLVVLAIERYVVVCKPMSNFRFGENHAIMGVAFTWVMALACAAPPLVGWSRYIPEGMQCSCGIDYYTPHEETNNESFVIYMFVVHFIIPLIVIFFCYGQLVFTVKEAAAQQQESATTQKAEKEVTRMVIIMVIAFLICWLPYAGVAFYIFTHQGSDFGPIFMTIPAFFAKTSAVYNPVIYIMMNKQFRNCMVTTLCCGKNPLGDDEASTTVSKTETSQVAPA
Assay: ELISA of lysates, OD450 with receptor minus without receptor
Description: The methods of Example 7 repeated using rhodopsin screening with a Gt library. To identify the rank order of binding, the lysates were analyzed using ELISA methods in which the secondary antibody was conjugated to HRP. Following addition of the substrate, the microplate was read using a spectrophotometer. The binding is the OD₄₅₀ for wells with receptor—OD₄₅₀ for wells in which no receptor (control wells with empty lipid vesicles).
Where no end group is shown, it is not given here.
Lab note - cut at 0.6 OD450 for ELISA: YES if strictly below, NO if not.

- binder: "VRDILKDCGLF (peptide, not shown: small tags and cut ends, also: fused to fusion carrier of the lysate via linker, not given here) [L15 VRDILKDCGLF]"
  assigned-label: "NO"
- binder: "MLDNLKDCGLF (peptide, not shown: small tags and cut ends, also: fused to lysate carrier and linker, not given here) [L7 MLDNLKDCGLF]"
  assigned-label: "YES"
- binder: "IVEILEDCGLF (peptide, not shown: small tags and cut ends, also: fused to fusion carrier of the lysate via linker, not given here) [L33 IVEILEDCGLF]"
  assigned-label: "NO"
- binder: "ISKNLRDCGLL (peptide, not shown: small tags and cut ends, also: fused to fusion carrier of the lysate via linker, not given here) [L13 ISKNLRDCGLL]"
  assigned-label: "YES"
